- STUDY_SYSTEM: Human Glucocorticoid Receptor (Homo sapiens, UniProt P04150)
- Construct: endogenous in cells
- Sequence (P04150 whole entry): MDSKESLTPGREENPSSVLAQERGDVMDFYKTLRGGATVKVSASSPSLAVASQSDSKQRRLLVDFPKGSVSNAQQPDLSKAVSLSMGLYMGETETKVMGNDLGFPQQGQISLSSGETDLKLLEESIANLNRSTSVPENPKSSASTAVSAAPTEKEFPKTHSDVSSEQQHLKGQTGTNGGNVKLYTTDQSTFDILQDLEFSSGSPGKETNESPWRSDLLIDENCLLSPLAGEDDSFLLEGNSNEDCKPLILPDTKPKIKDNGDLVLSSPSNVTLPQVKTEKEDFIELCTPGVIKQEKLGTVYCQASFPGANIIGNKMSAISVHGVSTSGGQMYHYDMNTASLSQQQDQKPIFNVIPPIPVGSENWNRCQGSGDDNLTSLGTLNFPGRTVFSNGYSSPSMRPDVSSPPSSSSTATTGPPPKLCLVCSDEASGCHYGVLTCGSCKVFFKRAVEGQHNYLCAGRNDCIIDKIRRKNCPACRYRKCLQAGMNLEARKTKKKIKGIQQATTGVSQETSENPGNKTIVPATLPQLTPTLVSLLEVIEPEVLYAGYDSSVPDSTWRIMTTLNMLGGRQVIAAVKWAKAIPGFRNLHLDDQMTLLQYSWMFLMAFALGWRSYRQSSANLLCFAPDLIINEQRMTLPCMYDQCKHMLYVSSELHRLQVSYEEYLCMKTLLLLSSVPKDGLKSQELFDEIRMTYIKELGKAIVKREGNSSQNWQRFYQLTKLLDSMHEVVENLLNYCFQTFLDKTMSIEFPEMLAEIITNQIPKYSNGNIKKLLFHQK
- EXPERIMENT: functional in vitro glucocorticoid assay, MMTV-sPAP reporter gene in transfected Hela cells
pEC50: −log10 of the molar value.
Listed below: pEC50 values for each entry.
METRIC_NAME: pEC50

compound="CCCC1O[C@@H]2C[C@H]3[C@@H]4CCC5=CC(=O)C=C[C@]5(C)[C@H]4[C@@H](O)C[C@]3(C)[C@]2(C(=O)CSC2CCOC2=O)O1 (single isomer, unassigned) [Example 9 isomer A]" study_system="Human Glucocorticoid Receptor (Homo sapiens, UniProt P04150)" metric_name=pEC50 value_observed="> 6.22"
compound="CC1(C)O[C@@H]2C[C@H]3[C@@H]4C[C@H](F)C5=CC(=O)CC[C@]5(C)[C@@]4(F)[C@@H](O)C[C@]3(C)[C@]2(C(=O)CSC2CCOC2=O)O1 (stereo partly drawn)" study_system="Human Glucocorticoid Receptor (Homo sapiens, UniProt P04150)" metric_name=pEC50 value_observed="> 6.22"
compound="CCC[C@@H]1O[C@@H]2C[C@H]3[C@@H]4C[C@H](F)C5=CC(=O)CC[C@]5(C)[C@@]4(F)[C@@H](O)C[C@]3(C)[C@]2(C(=O)CSC2COC(=O)C2)O1 (stereo partly drawn)" study_system="Human Glucocorticoid Receptor (Homo sapiens, UniProt P04150)" metric_name=pEC50 value_observed="> 6.22"
